Hey, just so you know, these numbers are from patent US10434085B2.

TARGET_OR_SYSTEM: TaK1-TaB1 (TAK-1 enzyme) (Homo sapiens (Human))
Sequence (O43318 other isoform, or with tags, fused parts or gaps): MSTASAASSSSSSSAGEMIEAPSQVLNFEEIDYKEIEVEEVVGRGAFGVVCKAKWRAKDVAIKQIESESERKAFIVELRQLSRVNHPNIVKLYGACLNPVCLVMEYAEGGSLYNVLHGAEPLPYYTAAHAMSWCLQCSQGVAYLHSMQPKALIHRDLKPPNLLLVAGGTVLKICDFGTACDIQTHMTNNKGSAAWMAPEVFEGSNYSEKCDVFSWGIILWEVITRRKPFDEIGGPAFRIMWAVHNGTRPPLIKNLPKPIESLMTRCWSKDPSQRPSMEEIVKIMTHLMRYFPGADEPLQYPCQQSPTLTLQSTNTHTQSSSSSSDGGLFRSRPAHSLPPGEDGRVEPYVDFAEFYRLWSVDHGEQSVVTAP
EXPERIMENT_DESCRIPTION: TaK1-TaB1 inhibitor assay (IC50 of RAL analogues against TAK-1 enzyme)
Format: biochemical
CONDITION_NOTES: Table 1, TAK-1 enzyme
Listed below: IC50 values for each entry.

MOLECULE	TARGET_OR_SYSTEM	READOUT_RELATION	IC50 (nM)
COc1cc(O)c2c(c1)/C=C/C[C@H](O)[C@H](O)C(=O)CCC[C@H](C)OC2=O [LL-Z164-1, reference compound]	TaK1-TaB1 (TAK-1 enzyme) (Homo sapiens (Human))	=	2600
COc1cc(O)c2c(c1)[C@H]1O[C@@H]1C[C@H](O)[C@H](O)C(=O)CCC[C@H](C)OC2=O [dihydrohypothemycin, reference compound]	TaK1-TaB1 (TAK-1 enzyme) (Homo sapiens (Human))	>	30000
COc1cc(O)c2c(c1)/C=C/C[C@@H]1OC(CC(=O)[C@H]1O)C[C@H](C)OC2=O	TaK1-TaB1 (TAK-1 enzyme) (Homo sapiens (Human))	>	30000
C/C=C\C=C/C(=O)[C@@H](O)[C@@H](O)C/C=C/c1cc(OC)cc(OC)c1C(=O)OC	TaK1-TaB1 (TAK-1 enzyme) (Homo sapiens (Human))	>	30000
COc1cc(O)c2c(c1Br)/C=C/C[C@H](O)[C@H](O)C(=O)/C=C\C[C@H](C)OC2=O	TaK1-TaB1 (TAK-1 enzyme) (Homo sapiens (Human))	=	360
COc1cc(O)c2c(c1)/C=C/C[C@H](O)[C@H](O)[C@@H](O)/C=C/C[C@H](C)OC2=O [zeaenol, reference compound]	TaK1-TaB1 (TAK-1 enzyme) (Homo sapiens (Human))	=	10000
COc1cc2c(c(O)c1Br)C(=O)O[C@@H](C)C/C=C\C(=O)[C@@H](O)[C@@H](O)C/C=C/2	TaK1-TaB1 (TAK-1 enzyme) (Homo sapiens (Human))	=	2600
